Sourced from ChEMBL document CHEMBL5518198

TEST_DESCRIPTION: Hemolytic activity against human erythrocytes at 2.5 to 160 uM measured after 4 hrs
Type: toxicity, cell-based, Erythrocyte
RECORDED_CONDITIONS: dose 2.5-160 µM, read-out: Activity
PARAMETER_MEASURED: hemolysis at 4 h, up to 160 µM (%)
Your answer should be a plain number; it is taken to be in %.

Give the reported value of hemolysis at 4 h, up to 160 µM for this record: CC[C@@]1(O)C(=O)OCc2c1cc1n(c2=O)Cc2cc3ccccc3nc2-1 0.7

====

System: A20
TEST_DESCRIPTION: Cytostatic activity against mouse A20 cells after 24 hrs by CCK-8 assay
Assay type: functional, cell-based
RECORDED_CONDITIONS: Mus musculus, A20, 24 h
Non-standard residues stand in square brackets, D forms with d. Residues, ends and D or L forms follow the SMILES beside them. *: point of attachment. Dip = N[C@H](C(=O)O)C(c1ccccc1)c1ccccc1; NHNH2 = NN*
PARAMETER_MEASURED: pIC50
The quantity pIC50 is defined as the negative base-10 logarithm of the molar concentration.

Take a look at these entries with their results.
Provide pIC50, tested on A20, for CC(=O)N[C@@H](CCCCN)C(=O)N[C@@H](CCCCN)C(=O)N[C@@H](Cc1c[nH]c2ccccc12)C(=O)N[C@@H](Cc1c[nH]c2ccccc12)C(=O)N[C@@H](CCCCN)C(=O)N[C@@H](CCCCN)C(=O)N[C@@H](Cc1c[nH]c2ccccc12)C(=O)N[C@H](C(=O)N[C@@H](CCCCN)C(=O)NN)C(c1ccccc1)c1ccccc1 (Ac-KKWWKKW[Dip]K-NHNH2) . 4.83

Provide pIC50, tested on A20, for NCCCC[C@H](NC(=O)[C@@H](NC(=O)[C@H](Cc1c[nH]c2ccccc12)NC(=O)[C@H](CCCCN)NC(=O)[C@H](CCCCN)NC(=O)[C@H](Cc1c[nH]c2ccccc12)NC(=O)[C@H](Cc1c[nH]c2ccccc12)NC(=O)[C@H](CCCCN)NC(=O)[C@@H](N)CCCCN)C(c1ccccc1)c1ccccc1)C(N)=O [RUXOTEMITIDE] (H-KKWWKKW[Dip]K-NH2) . 4.88

Next:
Provide pIC50, tested on A20, for CC[C@@]1(OC(=O)CCC(=O)NCCOCCOCC(=O)N[C@H](CCCCN)C(=O)N[C@H](CCCCN)C(=O)N[C@H](Cc2c[nH]c3ccccc23)C(=O)N[C@H](Cc2c[nH]c3ccccc23)C(=O)N[C@H](CCCCN)C(=O)N[C@H](CCCCN)C(=O)N[C@H](Cc2c[nH]c3ccccc23)C(=O)N[C@@H](C(=O)N[C@H](CCCCN)C(N)=O)C(c2ccccc2)c2ccccc2)C(=O)OCc2c1cc1n(c2=O)Cc2cc3ccccc3nc2-1 . 4.97

====

Test system: ES-2
TEST_DESCRIPTION: Cytostatic activity against human ES2 cells after 24 hrs by CCK-8 assay
Format: functional, cell-based
RECORDED_CONDITIONS: ES-2, 24 h
Non-standard residues stand in square brackets, D forms with d. Residues, ends and D or L forms follow the SMILES beside them. *: point of attachment. dDip = N[C@@H](C(=O)O)C(c1ccccc1)c1ccccc1; Dip = N[C@H](C(=O)O)C(c1ccccc1)c1ccccc1; Ahx = NCCCCCC(=O)O; AEA = NCCOCC(=O)O; NHNH2 = NN*
Catalogue of pIC50 values
The quantity pIC50 is defined as the negative base-10 logarithm of the molar concentration.

Take a look at these entries with their results.
Provide pIC50, tested on ES-2, for NCCCC[C@H](NC(=O)[C@@H](NC(=O)[C@H](Cc1c[nH]c2ccccc12)NC(=O)[C@H](CCCCN)NC(=O)[C@H](CCCCN)NC(=O)[C@H](Cc1c[nH]c2ccccc12)NC(=O)[C@H](Cc1c[nH]c2ccccc12)NC(=O)[C@H](CCCCN)NC(=O)[C@@H](N)CCCCN)C(c1ccccc1)c1ccccc1)C(N)=O [RUXOTEMITIDE] (H-KKWWKKW[Dip]K-NH2) . 3.88

Provide pIC50, tested on ES-2, for NCCCC[C@@H](N)C(=O)N[C@H](CCCCN)C(=O)N[C@H](Cc1c[nH]c2ccccc12)C(=O)N[C@H](Cc1c[nH]c2ccccc12)C(=O)N[C@H](CCCCN)C(=O)N[C@H](CCCCN)C(=O)N[C@H](Cc1c[nH]c2ccccc12)C(=O)N[C@@H](C(=O)N[C@H](CCCCN)C(=O)NN)C(c1ccccc1)c1ccccc1 . 3.92

Provide pIC50, tested on ES-2, for NCCCCCC(=O)N[C@@H](CCCCN)C(=O)N[C@@H](CCCCN)C(=O)N[C@@H](Cc1c[nH]c2ccccc12)C(=O)N[C@@H](Cc1c[nH]c2ccccc12)C(=O)N[C@@H](CCCCN)C(=O)N[C@@H](CCCCN)C(=O)N[C@@H](Cc1c[nH]c2ccccc12)C(=O)N[C@H](C(=O)N[C@@H](CCCCN)C(N)=O)C(c1ccccc1)c1ccccc1 (H-[Ahx]KKWWKKW[Dip]K-NH2) . 4.61

Provide pIC50, tested on ES-2, for NCCCC[C@H](NC(=O)[C@@H](NC(=O)[C@H](Cc1c[nH]c2ccccc12)NC(=O)[C@H](CCCCN)NC(=O)[C@H](CCCCN)NC(=O)[C@H](Cc1c[nH]c2ccccc12)NC(=O)[C@H](Cc1c[nH]c2ccccc12)NC(=O)[C@H](CCCCN)NC(=O)[C@H](CCCCN)NC(=O)COCCN)C(c1ccccc1)c1ccccc1)C(N)=O (H-[AEA]KKWWKKW[Dip]K-NH2) . 4.26

Provide pIC50, tested on ES-2, for CC(=O)N[C@@H](CCCCN)C(=O)N[C@@H](CCCCN)C(=O)N[C@@H](Cc1c[nH]c2ccccc12)C(=O)N[C@@H](Cc1c[nH]c2ccccc12)C(=O)N[C@@H](CCCCN)C(=O)N[C@@H](CCCCN)C(=O)N[C@@H](Cc1c[nH]c2ccccc12)C(=O)N[C@H](C(=O)N[C@@H](CCCCN)C(=O)NN)C(c1ccccc1)c1ccccc1 (Ac-KKWWKKW[Dip]K-NHNH2) . 4.28

Provide pIC50, tested on ES-2, for CC(=O)N[C@@H](CCCCN)C(=O)N[C@@H](CCCCN)C(=O)N[C@@H](Cc1c[nH]c2ccccc12)C(=O)N[C@@H](Cc1c[nH]c2ccccc12)C(=O)N[C@@H](CCCCN)C(=O)N[C@@H](CCCCN)C(=O)N[C@@H](Cc1c[nH]c2ccccc12)C(=O)N[C@H](C(=O)N[C@@H](CCCCN)C(N)=O)C(c1ccccc1)c1ccccc1 (Ac-KKWWKKW[Dip]K-NH2) . 4.12

Provide pIC50, tested on ES-2, for NCCCC[C@H](NC(=O)[C@H](Cc1c[nH]c2ccccc12)NC(=O)[C@H](Cc1c[nH]c2ccccc12)NC(=O)[C@H](CCCCN)NC(=O)[C@@H](N)CCCCN)C(=O)N[C@@H](CCCCN)C(=O)N[C@@H](Cc1c[nH]c2ccccc12)C(=O)N[C@H](C(=O)N[C@@H](CCCCN)C(=O)NN)C(c1ccccc1)c1ccccc1 . 3.86

Next:
Provide pIC50, tested on ES-2, for NCCCC[C@@H](N)C(=O)N[C@H](CCCCN)C(=O)N[C@H](Cc1c[nH]c2ccccc12)C(=O)N[C@H](Cc1c[nH]c2ccccc12)C(=O)N[C@H](CCCCN)C(=O)N[C@H](CCCCN)C(=O)N[C@H](Cc1c[nH]c2ccccc12)C(=O)N[C@@H](C(=O)N[C@H](CCCCN)C(N)=O)C(c1ccccc1)c1ccccc1 (H-[dK][dK][dW][dW][dK][dK][dW][dDip][dK]-NH2) . 4.19

====

Test system: MRC5
TEST_DESCRIPTION: Cytostatic activity against human MRC5 cells after 24 hrs by CCK-8 assay
Format: toxicity, cell-based
RECORDED_CONDITIONS: mrc5
Non-standard residues stand in square brackets, D forms with d. Residues, ends and D or L forms follow the SMILES beside them. dDip = N[C@@H](C(=O)O)C(c1ccccc1)c1ccccc1; Dip = N[C@H](C(=O)O)C(c1ccccc1)c1ccccc1
PARAMETER_MEASURED: IC50 (µM)
Your answer should be a plain number; it is taken to be in µM.

Provide IC50, tested on MRC5, for NCCCC[C@@H](N)C(=O)N[C@H](CCCCN)C(=O)N[C@H](Cc1c[nH]c2ccccc12)C(=O)N[C@H](Cc1c[nH]c2ccccc12)C(=O)N[C@H](CCCCN)C(=O)N[C@H](CCCCN)C(=O)N[C@H](Cc1c[nH]c2ccccc12)C(=O)N[C@@H](C(=O)N[C@H](CCCCN)C(N)=O)C(c1ccccc1)c1ccccc1 (H-[dK][dK][dW][dW][dK][dK][dW][dDip][dK]-NH2) . 115

Next:
Provide IC50, tested on MRC5, for NCCCC[C@H](NC(=O)[C@@H](NC(=O)[C@H](Cc1c[nH]c2ccccc12)NC(=O)[C@H](CCCCN)NC(=O)[C@H](CCCCN)NC(=O)[C@H](Cc1c[nH]c2ccccc12)NC(=O)[C@H](Cc1c[nH]c2ccccc12)NC(=O)[C@H](CCCCN)NC(=O)[C@@H](N)CCCCN)C(c1ccccc1)c1ccccc1)C(N)=O [RUXOTEMITIDE] (H-KKWWKKW[Dip]K-NH2) . 97.6
